Values compiled from PubChem BioAssay (NCI).

Items are presented alongside their recorded TGI.
Test system: OVCAR-5 ovarian
Assay: NCI tumour cell line growth inhibition, 48 h
quantity: TGI

compound	quantity	endpoint_value
COc1ccc(C2=C(c3ccc(OC)c(OC)c3)C(=O)N3CCCC3C2)cc1 (stereo unspecified)	TGI	> 100 µM
CCOC1CC(C)N(C(=O)c2ccccc2)O1 (stereo unspecified)	TGI	> 100 µM
Cc1cccc(N/C(Sc2ccccc2)=C(/C(Cl)=C(Cl)Cl)[N+](=O)[O-])c1	TGI	40.8 µM
CC(=O)[CH-]C(=O)c1ccccc1.CC(=O)[CH-]C(=O)c1ccccc1.CC(=O)[CH-]C(=O)c1ccccc1.[In+3]	TGI	> 100 µM
COC(=O)CC1c2ccccc2N2C(=O)Cc3c([nH]c4ccccc34)C12 (stereo unspecified)	TGI	> 100 µM
Cc1ccc(Nc2nc3c(=O)n(C)c(=O)n(C)c3nc2Nc2ccc(C)cc2)cc1	TGI	31.2 µM

---

Tested on: A549 NSCLC
Test: NCI tumour cell line growth inhibition, 48 h
quantity: TGI

molecule	endpoint_value
CCN(CC)c1oc(N(CC)CC)c(C(=O)Nc2ccccn2)c(=O)c1C(C)=O	> 100 µM
CSc1nc2c(c(=O)[nH]1)N=C(c1ccccc1)CC(c1ccccc1)N2 (stereo unspecified)	> 100 µM
Nc1c(C(=O)c2cccc(C#CCO)c2)cnn1-c1ccc(F)cc1	> 25 µM
COc1ccc(C2=C(c3ccc(OC)c(OC)c3)C(=O)N3CCCC3C2)cc1 (stereo unspecified)	> 100 µM
COc1cc2c(c(OC)c1OC)-c1ccc(SC)cc1C(O)CC2 (stereo unspecified)	34.6 µM
CC(C)NC(=O)OCc1c2c(n(C)c1COC(=O)NC(C)C)-c1ccccc1CC2	89.9 µM
O=CN1CCN(C(=O)c2ccc(Cl)c(Cl)c2)C1=S	35 µM
CCOc1ccc(NC(=O)C(=O)C(C(=O)c2ccc3ccccc3c2)C2OC(=O)c3ccccc32)cc1 (stereo unspecified)	> 100 µM
O=C(OCCNC(=O)N1CC1)OCCNC(=O)N1CC1	> 10 µM
CC(=O)Nc1cccc(N=NN(C)C)c1	> 100 µM
CCCCCCCCCCCCCCCCCCOCC(O)COP(=O)(O)OCC1OC(n2ccc(N)nc2=O)C(O)C1O (stereo unspecified)	> 100 µM
CCOC(=O)c1cc2c(n1Cc1cc(OC)c(OC)c(OC)c1)-c1oncc1CCC2	65.4 µM
NC(=O)c1ccc(-c2nc(-c3ccc4c(c3)OCO4)c(-c3ccccn3)[nH]2)cc1	> 100 µM
O=C(N/N=C/c1ccccc1)c1cccc2nc3ccccc3nc12	> 84 µM
CCOC1CC(C)N(C(=O)c2ccccc2)O1 (stereo unspecified)	> 100 µM
ON=C(CC(O)(C(F)(F)Cl)C(F)(F)Cl)CC(O)(C(F)(F)Cl)C(F)(F)Cl	> 10 µM
CCOc1cc2c(c(OCC)c1O)CC[C@@H]1[C@@H]2CC[C@]2(C)[C@@H](O)CC[C@@H]12	> 100 µM
Cc1n(Cc2ccccc2)nc2sc(N)n[n+]12	> 100 µM
CN(C)c1ccc(C=C2C(=O)NC(=S)NC2=O)c2ccccc12	> 100 µM
Cc1ccc2c(=O)c3ccccc3sc2c1	> 100 µM
CCOC(=O)/C=C(/C)Nc1nc2c(c(C(=O)OC)c1C#N)CCCC2	> 100 µM
Cc1ccc2c(/C=C/c3ccc(N(C)C)cc3)ccc(C(C)C)cc1-2	> 100 µM
C[C@@H]1CC[C@@]2(OC1)O[C@H]1C[C@H]3[C@@H]4CC[C@H]5C[C@@H](OC6OC(CO)C(OC7OC(CO)C(O)C(OC8OCC(O)C(O)C8O)C7OC7OC(CO)C(O)C(O)C7O)C(O)C6O)[C@H](O)C[C@]5(C)[C@H]4CC[C@]3(C)[C@H]1[C@@H]2C (stereo partly specified)	10.9 µM
Cc1cnc2[nH]c(-c3ccc4ccccc4c3)cc(=O)c2c1	> 100 µM
CCN1C(=O)N(CC)C2C1NN=c1s/c(=C\c3ccccn3)c(=O)n12 (stereo unspecified)	> 100 µM
Cc1nc2sccn2c1/C=C1/C(=O)Nc2cccc(Cl)c21	> 100 µM
Cc1cnc(CNC(=O)c2c(=O)c3ccc(N4CCCN(C)CC4)nc3n3c2sc2ccccc23)cn1	7.23 µM
O=C(N/N=C(/COc1ccccc1)N=Cc1cccnc1)c1ccncc1	> 100 µM
N#CSCc1ccc(Cl)c(CSC#N)c1	> 58.4 µM
Nc1ncnc2c1c(-c1ccc(Oc3ccccc3)cc1)nn2C[C@@H]1SSC[C@H]1O	4.69 µM
Cn1c(N)nc(-c2ccc(Cl)cc2)c1SSc1c(-c2ccc(Cl)cc2)nc(N)n1C	27.2 µM
CC(=O)O[C@H]1CCC2[C@@H]3CCC4c5nonc5CC[C@]4(C)C3CC[C@@]21C (stereo partly specified)	> 10 µM
CC[C@H](CO)Nc1nc(NCc2ccccc2)c2ncn(C(C)C)c2n1	> 100 µM
CC(=O)CC1=C(OC(C)C)C2(OCCO2)C1O (stereo unspecified)	> 100 µM
CCCCCCCCC/C=C1\CCC(CN(C)C)C1=O (stereo unspecified)	18 µM
O=c1cc(-c2cccnc2)[nH]c2cc3c(cc12)OCO3	> 100 µM
